The reported numbers originate from ChEMBL document CHEMBL4422659.

test: Ratio of drug level in brain to plasma in mouse at 30 mg/kg, ip measured at 1 hr by LC-MS/MS analysis; format: ADME, organism-based; conditions: brain and plasma
reported.metric: Kp at 1 h

> print(dat)
                                smiles.repr  reported
1  CC(C)c1ccc(NC(=O)c2c(-c3cc(F)ccc3F)ccnc2N2CC[C@H](F)C2)cn1       0.2

###

# key: entry, value: Activity
target: Sodium channel protein type 1 subunit alpha (Homo sapiens) (UniProt P35498); assay: Activation of human Nav1.1 expressed in T-Rex-CHO cells assessed as change in decay time constant of channel currents at 10 uM at holding potential of -120 mV by automated patch-clamp electrophysiology assay relative to control; format: cell-based
reported.metric: Activity (%)

> print(dat)
                                smiles.repr  reported
1  CC(C)c1ccc(NC(=O)c2c(N3CCOCC3)ccnc2-c2ccc(Cl)cc2)cn1       107
2  CCN(CC)c1ncnc(-c2ccc(Cl)cc2)c1C(=O)Nc1ccc(C(C)C)nc1        74
3  CC(C)c1ccc(NC(=O)c2c(-c3ccc(Cl)cc3)ncnc2N2CC[C@H](F)C2)cn1       342
4  CC(C)c1ccc(NC(=O)c2c(-c3ccc(Cl)cc3)ncnc2N2CCCC2)cn1       257
5  CC(C)c1ccc(NC(=O)c2c(-c3ccc(Cl)cc3)ncnc2N2CCOCC2)cn1       370
6  CC(C)c1ccc(NC(=O)c2c(-c3ccc(Cl)cc3)cccc2N2CCOCC2)cn1       110
7  Cc1cc(C)c(NC(=O)c2c(-c3ccc(Cl)cc3)noc2N2CCOCC2)c(C)c1       102
8  CC(C)c1ccc(NC(=O)c2c(-c3ccc(Cl)cc3)ncnc2N2CC[C@@H](F)C2)cn1       162
9  CC(C)c1ccc(NC(=O)c2c(-c3ccc(Cl)cc3)ccnc2N2CCOCC2)cn1       767
